target: VpMCM (V. parvula MCM) (Veillonella parvula); assay: Fluorescence binding assay, VpMCM; conditions: fitted curve, error = standard error of the curve fit; equimolar α and β subunits
Sequence (A0A124EFR6 entry or part of it): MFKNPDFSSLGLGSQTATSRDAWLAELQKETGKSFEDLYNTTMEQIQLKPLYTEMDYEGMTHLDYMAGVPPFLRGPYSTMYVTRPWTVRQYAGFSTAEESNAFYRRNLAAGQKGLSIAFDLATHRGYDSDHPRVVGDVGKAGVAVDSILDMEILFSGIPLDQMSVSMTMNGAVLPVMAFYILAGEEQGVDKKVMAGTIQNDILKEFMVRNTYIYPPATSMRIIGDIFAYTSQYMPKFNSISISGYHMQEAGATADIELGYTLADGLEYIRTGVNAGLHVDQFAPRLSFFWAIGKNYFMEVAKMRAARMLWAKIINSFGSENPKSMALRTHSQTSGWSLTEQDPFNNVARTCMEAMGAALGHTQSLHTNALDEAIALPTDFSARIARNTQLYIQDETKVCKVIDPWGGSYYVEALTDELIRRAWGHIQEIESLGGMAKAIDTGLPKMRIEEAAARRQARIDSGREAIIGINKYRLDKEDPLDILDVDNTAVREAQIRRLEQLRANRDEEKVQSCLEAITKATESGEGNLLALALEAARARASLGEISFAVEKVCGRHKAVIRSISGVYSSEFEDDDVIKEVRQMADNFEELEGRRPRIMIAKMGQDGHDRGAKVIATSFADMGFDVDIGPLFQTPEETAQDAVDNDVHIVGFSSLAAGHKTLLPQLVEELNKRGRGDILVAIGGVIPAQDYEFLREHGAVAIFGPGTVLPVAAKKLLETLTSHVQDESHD
Listing of recorded Kd by entry.
Write down the numeric answer in µM and omit the unit.

C/C1=C2/[N-][C@H]([C@H](CC(N)=O)[C@@]2(C)CCC(=O)NC[C@@H](C)OP(=O)([O-])O[C@H]2[C@@H](O)[C@@H](Oc3ccccc3)O[C@@H]2CO)[C@]2(C)N=C(/C(C)=C3N=C(/C=C4N=C1[C@@H](CCC(N)=O)C\4(C)C)[C@@H](CCC(N)=O)[C@]\3(C)CC(N)=O)[C@@H](CCC(N)=O)[C@]2(C)CC(N)=O.[CH2-][C@H]1O[C@@H](n2cnc3c(N)ncnc32)[C@H](O)[C@@H]1O.[Co+3] [Ado[Phe]Cba, Phenolylcobamide] | 5

Here's the next entry for you.
Request: Can you look up the measured Kd of C/C1=C2/[N-][C@H]([C@H](CC(N)=O)[C@@]2(C)CCC(=O)NC[C@@H](C)OP(=O)([O-])O[C@H]2[C@@H](O)[C@@H](n3cnc4cc(C)c(C)cc43)O[C@@H]2CO)[C@]2(C)N=C(/C(C)=C3N=C(/C=C4N=C1[C@@H](CCC(N)=O)C\4(C)C)[C@@H](CCC(N)=O)[C@]\3(C)CC(N)=O)[C@@H](CCC(N)=O)[C@]2(C)CC(N)=O.[CH2-][C@H]1O[C@@H](n2cnc3c(N)ncnc32)[C@H](O)[C@@H]1O.[Co+3] [AdoCbl, adenosylcobalamin, reference compound] for me?
Result: 2.8
